Kindly supply the reported EC50 values for the records listed here.
assay.system: apTKRPR-A (Aplysia californica)
Sequence (A0AAU7SSZ1 1-398): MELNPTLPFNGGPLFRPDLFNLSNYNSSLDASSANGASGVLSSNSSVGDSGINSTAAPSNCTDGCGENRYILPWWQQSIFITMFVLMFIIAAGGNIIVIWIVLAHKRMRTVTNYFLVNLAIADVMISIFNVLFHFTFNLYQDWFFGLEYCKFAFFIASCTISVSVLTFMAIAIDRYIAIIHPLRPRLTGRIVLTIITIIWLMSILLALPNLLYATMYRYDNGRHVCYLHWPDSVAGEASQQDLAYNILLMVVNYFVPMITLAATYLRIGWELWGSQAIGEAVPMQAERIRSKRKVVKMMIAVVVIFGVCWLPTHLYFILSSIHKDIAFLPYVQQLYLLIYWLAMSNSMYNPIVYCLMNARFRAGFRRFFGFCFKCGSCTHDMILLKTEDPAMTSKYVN
method.notes: IP1 accumulation assay, CHO-K1 cells transiently expressing apTKRPR-A
Assay type: cell-based
Non-standard residues stand in square brackets, D forms with d. Residues, ends and D or L forms follow the SMILES beside them. pGlu = O=C1CC[C@@H](C(=O)O)N1
Numbers only, in nM.

Examples with answers:
CC(C)C[C@H](NC(=O)[C@H](Cc1c[nH]cn1)NC(=O)[C@@H]1CCCN1C(=O)[C@@H]1CCC(=O)N1)C(=O)NCC(=O)N[C@@H](Cc1ccccc1)C(=O)N[C@@H](Cc1c[nH]cn1)C(=O)NCC(=O)N[C@@H](C)C(=O)N[C@@H](CCCNC(=N)N)C(N)=O [[Ala^9]apTKRP-2b] ([pGlu]PHLGFHGAR-NH2): 195
CC(C)C[C@H](NC(=O)[C@H](Cc1c[nH]cn1)NC(=O)[C@@H]1CCCN1C(=O)[C@@H]1CCC(=O)N1)C(=O)N[C@@H](C)C(=O)N[C@@H](Cc1ccccc1)C(=O)N[C@@H](Cc1c[nH]cn1)C(=O)NCC(=O)N[C@@H](CO)C(=O)N[C@@H](CCCNC(=N)N)C(N)=O [[Ala^5]apTKRP-2b] ([pGlu]PHLAFHGSR-NH2): 1660
CC(C)C[C@H](NC(=O)[C@H](Cc1c[nH]cn1)NC(=O)[C@@H]1CCCN1C(=O)[C@@H]1CCC(=O)N1)C(=O)NCC(=O)N[C@@H](Cc1ccccc1)C(=O)N[C@@H](Cc1c[nH]cn1)C(=O)N[C@@H](C)C(=O)N[C@@H](CO)C(=O)N[C@@H](CCCNC(=N)N)C(N)=O [[Ala^8]apTKRP-2b] ([pGlu]PHLGFHASR-NH2): 20.9
C[C@H](NC(=O)[C@H](Cc1c[nH]cn1)NC(=O)[C@@H]1CCCN1C(=O)[C@@H]1CCC(=O)N1)C(=O)NCC(=O)N[C@@H](Cc1ccccc1)C(=O)N[C@@H](Cc1c[nH]cn1)C(=O)NCC(=O)N[C@@H](CO)C(=O)N[C@@H](CCCNC(=N)N)C(N)=O [[Ala^4]apTKRP-2b] ([pGlu]PHAGFHGSR-NH2): 9.77
CC(C)C[C@H](NC(=O)[C@H](Cc1c[nH]cn1)NC(=O)[C@@H]1CCCN1C(=O)[C@@H]1CCC(=O)N1)C(=O)NCC(=O)N[C@@H](C)C(=O)N[C@@H](Cc1c[nH]cn1)C(=O)NCC(=O)N[C@@H](CO)C(=O)N[C@@H](CCCNC(=N)N)C(N)=O [[Ala^6]apTKRP-2b] ([pGlu]PHLGAHGSR-NH2): 1510
CC(C)C[C@H](NC(=O)[C@H](Cc1c[nH]cn1)NC(=O)[C@@H]1CCCN1C(=O)[C@@H]1CCC(=O)N1)C(=O)NCC(=O)N[C@@H](Cc1ccccc1)C(=O)N[C@@H](Cc1c[nH]cn1)C(=O)NCC(=O)N[C@@H](CO)C(=O)N[C@@H](CCCNC(=N)N)C(N)=O [apTKRP-2b] ([pGlu]PHLGFHGSR-NH2): 37.2
CC(C)C[C@H](NC(=O)[C@H](C)NC(=O)[C@@H]1CCCN1C(=O)[C@@H]1CCC(=O)N1)C(=O)NCC(=O)N[C@@H](Cc1ccccc1)C(=O)N[C@@H](Cc1c[nH]cn1)C(=O)NCC(=O)N[C@@H](CO)C(=O)N[C@@H](CCCNC(=N)N)C(N)=O [[Ala^3]apTKRP-2b] ([pGlu]PALGFHGSR-NH2): 295
CC(C)C[C@H](NC(=O)[C@H](Cc1c[nH]cn1)NC(=O)[C@H](C)NC(=O)[C@@H]1CCC(=O)N1)C(=O)NCC(=O)N[C@@H](Cc1ccccc1)C(=O)N[C@@H](Cc1c[nH]cn1)C(=O)NCC(=O)N[C@@H](CO)C(=O)N[C@@H](CCCNC(=N)N)C(N)=O [[Ala^2]apTKRP-2b] ([pGlu]AHLGFHGSR-NH2): 309

Please find the next compound below.
// sample CC(C)C[C@H](NC(=O)[C@H](Cc1c[nH]cn1)NC(=O)[C@@H]1CCCN1C(=O)[C@@H]1CCC(=O)N1)C(=O)NCC(=O)N[C@@H](Cc1ccccc1)C(=O)N[C@@H](C)C(=O)NCC(=O)N[C@@H](CO)C(=O)N[C@@H](CCCNC(=N)N)C(N)=O [[Ala^7]apTKRP-2b] ([pGlu]PHLGFAGSR-NH2) , its EC50 was 1070
